# System: EBNA-1 (Epstein-Barr virus nuclear antigen 1), Human herpesvirus 4
# assay.notes: EBNA-1 DNA-binding inhibitors, primary screen, biochemical, fluorescence polarization (AID 1950)
# applied.conditions: at 14.8 µM
The campaign covered roughly 300,000 compounds. About 1,000 (0.33%) were called active. No stated cut-off is given here; in the data, active means inhibition above about 28%; inactive means the rest. This excerpt belongs to a sample that is enriched for actives.
Log the outcome using a class from y = active, n = inactive

// below: answered compounds
| compound | label |
| --- | --- |
| Cc1cc(=O)oc2cc(OCC(=O)Nc3nnc(C4CC4)s3)ccc12 | n |
| CN1CCN(CC(=O)C23CC4CC(CC(C4)C2)C3)CC1 | n |
| CC1=NCCN1S(=O)(=O)c1cccc([N+](=O)[O-])c1 | n |
| COc1ccc(NC(=O)NCc2ccc3c(c2)OCO3)c(OC)c1 | y |
| COc1ccc(C(=O)OCC(=O)c2ccc(Cl)s2)c(OC)c1OC | n |

Exercise: I would be grateful if you could indicate the recorded call for CCN(CC)c1ccc2cc(C(N)=O)/c(=N\NC(=O)c3ccncc3)oc2c1 .
Solution: n
